# system tested: mAC4 (Homo sapiens)
# Construct: Human mAC genes were from GenScript and fitted with a C-terminal FLAG-tag; FLAG (C); made in house; host or cells: HEK293, permanently transfected; membrane preparation
# Sequence (Q8NFM4 whole entry): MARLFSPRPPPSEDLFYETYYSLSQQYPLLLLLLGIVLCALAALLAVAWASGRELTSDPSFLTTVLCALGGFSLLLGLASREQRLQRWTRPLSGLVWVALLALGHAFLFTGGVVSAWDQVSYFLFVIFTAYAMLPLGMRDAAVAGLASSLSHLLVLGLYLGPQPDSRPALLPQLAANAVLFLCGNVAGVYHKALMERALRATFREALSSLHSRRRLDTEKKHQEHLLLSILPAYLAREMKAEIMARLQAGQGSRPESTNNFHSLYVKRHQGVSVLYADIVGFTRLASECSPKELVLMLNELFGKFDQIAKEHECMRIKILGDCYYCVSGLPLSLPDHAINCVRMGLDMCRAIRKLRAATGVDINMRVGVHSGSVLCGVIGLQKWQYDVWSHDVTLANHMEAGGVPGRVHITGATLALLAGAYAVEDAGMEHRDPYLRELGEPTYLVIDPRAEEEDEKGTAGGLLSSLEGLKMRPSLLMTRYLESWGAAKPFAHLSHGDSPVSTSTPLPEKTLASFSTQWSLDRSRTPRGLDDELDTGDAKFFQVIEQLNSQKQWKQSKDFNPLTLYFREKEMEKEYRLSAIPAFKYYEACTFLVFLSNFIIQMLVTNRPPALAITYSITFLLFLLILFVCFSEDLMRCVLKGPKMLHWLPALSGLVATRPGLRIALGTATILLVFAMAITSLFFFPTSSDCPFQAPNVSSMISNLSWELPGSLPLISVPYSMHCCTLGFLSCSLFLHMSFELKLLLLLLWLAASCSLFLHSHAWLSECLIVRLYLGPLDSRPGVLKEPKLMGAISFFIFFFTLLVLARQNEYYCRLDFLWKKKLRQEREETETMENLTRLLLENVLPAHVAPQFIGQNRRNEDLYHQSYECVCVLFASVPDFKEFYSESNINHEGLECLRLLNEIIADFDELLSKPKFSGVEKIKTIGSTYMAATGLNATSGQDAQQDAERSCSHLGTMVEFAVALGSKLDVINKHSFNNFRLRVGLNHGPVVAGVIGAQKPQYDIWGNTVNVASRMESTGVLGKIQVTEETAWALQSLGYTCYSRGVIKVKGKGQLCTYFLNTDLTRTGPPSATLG
# protocol notes: AC assay, Gsα-stimulated mAC4 in membranes from transfected HEK293 cells
# Type: biochemical
# settings: attenuation of 300 nM Gsα-stimulated activity; read-out: IC50 for mAC4
attribute measured: IC50 (µM)
Provide the reading as a plain figure in µM.

Query :: Query the reported IC50 for mAC4 (Homo sapiens); item: CCCCCC/C=C\CCCCCCCC(=O)O [Palmitoleic acid, Palmitoleic ((9Z)-hexadecenoic) acid]
Result :: 20

---

# system tested: mAC4 (Homo sapiens)
# Construct: Human mAC genes were from GenScript and fitted with a C-terminal FLAG-tag; FLAG (C); made in house; host or cells: HEK293, permanently transfected; membrane preparation
# protocol notes: AC assay, Gsα-stimulated mAC4 in membranes from transfected HEK293 cells
# Assay type: biochemical
# Procedure: hAC sequences were from NCBI were: ADCY1: NM_021116.3; ADCY2: NM_020546.2; ADCY3: NM_004036.4; ADCY4: NM_001198568.2; ADCY5: NM_183357.2; ADCY6: NM_015270.4; ADCY7: NM_001114.4; ADCY8: NM_001115.2; ADCY9: NM_001116.3. Human mAC genes were from GenScript and fitted with a C-terminal FLAG-tag. […] The gene was synthesized by GenScript. […] In a volume of 10 μl, AC activities were measured using 1 mM ATP, 2 mM MgCl2, 3 mM creatine phosphate, 60 μg/ml creatine kinase, and 50 mM MOPS pH 7.5. […]
attribute measured: IC50
Report field: quantity (unit follows the number).

Query :: GET /values?readout=IC50&item= CCCCC/C=C\C/C=C\C/C=C\C/C=C\CCCC(=O)O
Result :: 36 µM

---

# system tested: mAC1 (Homo sapiens)
# Construct: Human mAC genes were from GenScript and fitted with a C-terminal FLAG-tag; FLAG (C); made in house; host or cells: HEK293, permanently transfected; membrane preparation
# protocol notes: AC assay, Gsα-stimulated mAC1 in membranes from transfected HEK293 cells
# Type: biochemical
attribute measured: IC50 (µM)
Provide the reading as a plain figure in µM.

Query :: GET /values?readout=IC50&item= CCCCCC/C=C\CCCCCCCC(=O)O
Result :: 49

Query :: Field entry: CCCCC/C=C\C/C=C\C/C=C\C/C=C\CCCC(=O)NCCO [Anandamide, arachidonoylethanolamide]
Result :: 29

---

# system tested: mAC3 (Homo sapiens, UniProt O60266)
# Construct: Human mAC genes were from GenScript and fitted with a C-terminal FLAG-tag; FLAG (C); membrane preparation
# Sequence (O60266 whole entry): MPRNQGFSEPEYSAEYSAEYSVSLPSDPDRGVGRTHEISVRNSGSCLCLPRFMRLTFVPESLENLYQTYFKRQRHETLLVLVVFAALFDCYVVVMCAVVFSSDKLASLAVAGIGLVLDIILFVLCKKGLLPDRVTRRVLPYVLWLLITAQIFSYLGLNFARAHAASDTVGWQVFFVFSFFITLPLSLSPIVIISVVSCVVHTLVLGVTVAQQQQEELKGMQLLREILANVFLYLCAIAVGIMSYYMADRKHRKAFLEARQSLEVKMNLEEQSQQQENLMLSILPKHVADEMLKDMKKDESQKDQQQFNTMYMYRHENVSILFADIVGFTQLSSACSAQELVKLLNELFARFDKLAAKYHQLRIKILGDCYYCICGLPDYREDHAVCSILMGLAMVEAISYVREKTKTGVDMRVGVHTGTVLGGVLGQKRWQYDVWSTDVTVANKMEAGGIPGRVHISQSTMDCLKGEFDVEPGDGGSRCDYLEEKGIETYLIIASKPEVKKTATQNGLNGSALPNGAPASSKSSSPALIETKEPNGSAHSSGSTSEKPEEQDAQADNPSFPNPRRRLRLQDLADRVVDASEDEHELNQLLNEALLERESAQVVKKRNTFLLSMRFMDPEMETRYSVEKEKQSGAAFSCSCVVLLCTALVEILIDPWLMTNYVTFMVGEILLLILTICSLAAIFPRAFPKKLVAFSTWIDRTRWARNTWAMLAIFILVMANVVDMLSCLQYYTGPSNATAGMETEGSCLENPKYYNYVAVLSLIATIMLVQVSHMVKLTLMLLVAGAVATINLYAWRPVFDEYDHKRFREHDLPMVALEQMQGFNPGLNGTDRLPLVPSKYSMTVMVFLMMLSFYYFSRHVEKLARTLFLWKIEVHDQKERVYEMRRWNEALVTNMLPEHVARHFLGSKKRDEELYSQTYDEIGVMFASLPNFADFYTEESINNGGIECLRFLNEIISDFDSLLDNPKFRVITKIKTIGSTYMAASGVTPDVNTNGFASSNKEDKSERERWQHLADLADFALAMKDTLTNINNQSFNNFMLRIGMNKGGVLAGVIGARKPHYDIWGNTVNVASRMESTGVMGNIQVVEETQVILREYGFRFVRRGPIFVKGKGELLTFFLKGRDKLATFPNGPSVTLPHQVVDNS
# Sequence (P63092 whole entry Q227L partner): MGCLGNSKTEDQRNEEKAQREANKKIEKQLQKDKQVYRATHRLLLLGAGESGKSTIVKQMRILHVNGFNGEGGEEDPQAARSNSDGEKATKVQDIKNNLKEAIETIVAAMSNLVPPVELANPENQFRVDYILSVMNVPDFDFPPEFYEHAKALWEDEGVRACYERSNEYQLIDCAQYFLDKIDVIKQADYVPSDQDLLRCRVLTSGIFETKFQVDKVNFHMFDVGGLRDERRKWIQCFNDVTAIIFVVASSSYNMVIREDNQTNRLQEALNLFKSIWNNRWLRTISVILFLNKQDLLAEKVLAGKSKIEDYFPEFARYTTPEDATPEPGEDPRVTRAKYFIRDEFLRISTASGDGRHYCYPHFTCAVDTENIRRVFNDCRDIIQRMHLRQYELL
# protocol notes: AC assay, Gsα-stimulated mAC3 in membranes from transfected HEK293 cells
# settings: enhancement of 300 nM Gsα-stimulated activity
# Procedure: hAC sequences were from NCBI were: ADCY1: NM_021116.3; ADCY2: NM_020546.2; ADCY3: NM_004036.4; ADCY4: NM_001198568.2; ADCY5: NM_183357.2; ADCY6: NM_015270.4; ADCY7: NM_001114.4; ADCY8: NM_001115.2; ADCY9: NM_001116.3. Human mAC genes were from GenScript and fitted with a C-terminal FLAG-tag. […] The gene was synthesized by GenScript. […] In a volume of 10 μl, AC activities were measured using 1 mM ATP, 2 mM MgCl2, 3 mM creatine phosphate, 60 μg/ml creatine kinase, and 50 mM MOPS pH 7.5. […]
attribute measured: EC50

Query :: GET /values?readout=EC50&item= CCCCCCCC/C=C\CCCCCCCC(=O)O
Result :: 10.4 µM

Query :: Field entry: CCCCCCCCCCCCCCCC(=O)O
Result :: 6.4 µM

---

# system tested: HEK293 cells permanently transfected with mAC3 (Homo sapiens, UniProt O60266)
# Construct: Human mAC genes were from GenScript and fitted with a C-terminal FLAG-tag; FLAG (C); expressed in transfected cells; host or cells: HEK293, permanently transfected
# protocol notes: cAMP accumulation assay, isoproterenol-stimulated HEK-mAC3 cells
# Type: cell-based
# settings: 2.5 µM isoproterenol
attribute measured: pEC50
# pEC50: negative log10 of molar concentration; output just the value

Query :: Query the reported pEC50 for HEK293 cells permanently transfected with mAC3 (Homo sapiens, UniProt O60266); item: CCCCCCCC/C=C\CCCCCCCC(=O)O [Oleic acid, Oleic ((9Z)-octadecenoic) acid]
Result :: 6.30

---

# system tested: mAC5(membr)–AC3(cat) (Homo sapiens, UniProt O60266+O95622)
# Construct: followed by AC5(1–402)_AC3(250–631)_AC5(761–1009)_AC3(862–1144); membrane preparation
# Sequence (O95622 1-402, one chain of several): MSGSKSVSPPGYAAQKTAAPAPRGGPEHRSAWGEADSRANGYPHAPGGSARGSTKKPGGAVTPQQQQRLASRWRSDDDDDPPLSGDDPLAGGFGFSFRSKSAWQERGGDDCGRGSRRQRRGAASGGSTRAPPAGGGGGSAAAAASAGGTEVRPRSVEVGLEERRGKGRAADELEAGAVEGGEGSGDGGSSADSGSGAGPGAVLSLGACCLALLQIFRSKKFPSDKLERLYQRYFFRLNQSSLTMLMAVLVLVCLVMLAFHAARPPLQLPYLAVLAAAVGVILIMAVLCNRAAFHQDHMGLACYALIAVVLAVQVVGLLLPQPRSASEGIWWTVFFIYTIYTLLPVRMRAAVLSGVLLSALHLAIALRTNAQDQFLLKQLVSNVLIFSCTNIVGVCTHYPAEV
# Sequence (O95622 761-1009, one chain of several): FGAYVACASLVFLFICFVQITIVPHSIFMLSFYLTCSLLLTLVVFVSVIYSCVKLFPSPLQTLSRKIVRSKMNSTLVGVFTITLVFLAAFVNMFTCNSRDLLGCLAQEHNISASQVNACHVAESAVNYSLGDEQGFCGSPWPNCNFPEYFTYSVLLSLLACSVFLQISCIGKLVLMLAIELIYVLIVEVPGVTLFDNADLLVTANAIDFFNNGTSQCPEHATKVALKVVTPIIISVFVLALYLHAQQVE
# protocol notes: AC assay, Gsα-stimulated chimera mAC5–3 in membranes from transfected HEK293 cells
# settings: attenuation of 300 nM Gsα-stimulated activity
attribute measured: IC50 (µM)
Provide the reading as a plain figure in µM.

Query :: GET /values?readout=IC50&item= CCCCC/C=C\C/C=C\C/C=C\C/C=C\CCCC(=O)NCCO [Anandamide, arachidonoylethanolamide]
Result :: 29

---

Please respond with reported EC50 for every item in the list.
# system tested: mAC7 (Homo sapiens)
# Construct: Human mAC genes were from GenScript and fitted with a C-terminal FLAG-tag; FLAG (C); membrane preparation
# protocol notes: AC assay, Gsα-stimulated mAC7 in membranes from transfected HEK293 cells
# settings: enhancement of 300 nM Gsα-stimulated activity
Provide the reading as a plain figure in µM.

Query :: GET /values?readout=EC50&item= CCCCCCCC/C=C\CCCCCCCC(=O)O
Result :: 6.7

Query :: Field entry: CCCCCCCC/C=C/CCCCCCCC(=O)O
Result :: 9.7

---

# system tested: HEK-mAC1 (Homo sapiens, UniProt Q08828)
# Construct: Human mAC genes were from GenScript and fitted with a C-terminal FLAG-tag; FLAG (C)
# protocol notes: cAMP accumulation assay, isoproterenol-stimulated HEK-mAC1 cells
# settings: 10 µM isoproterenol, 0.5 mM IBMX
attribute measured: IC50 (nM)
Provide the reading as a plain figure in nM.

Query :: GET /values?readout=IC50&item= CCCCC/C=C\C/C=C\C/C=C\C/C=C\CCCC(=O)O
Result :: 0.25

---

Please respond with reported EC50 for every item in the list.
# system tested: mAC2 (Homo sapiens, UniProt Q08462)
# Construct: Human mAC genes were from GenScript and fitted with a C-terminal FLAG-tag; FLAG (C); membrane preparation
# Sequence (Q08462 whole entry): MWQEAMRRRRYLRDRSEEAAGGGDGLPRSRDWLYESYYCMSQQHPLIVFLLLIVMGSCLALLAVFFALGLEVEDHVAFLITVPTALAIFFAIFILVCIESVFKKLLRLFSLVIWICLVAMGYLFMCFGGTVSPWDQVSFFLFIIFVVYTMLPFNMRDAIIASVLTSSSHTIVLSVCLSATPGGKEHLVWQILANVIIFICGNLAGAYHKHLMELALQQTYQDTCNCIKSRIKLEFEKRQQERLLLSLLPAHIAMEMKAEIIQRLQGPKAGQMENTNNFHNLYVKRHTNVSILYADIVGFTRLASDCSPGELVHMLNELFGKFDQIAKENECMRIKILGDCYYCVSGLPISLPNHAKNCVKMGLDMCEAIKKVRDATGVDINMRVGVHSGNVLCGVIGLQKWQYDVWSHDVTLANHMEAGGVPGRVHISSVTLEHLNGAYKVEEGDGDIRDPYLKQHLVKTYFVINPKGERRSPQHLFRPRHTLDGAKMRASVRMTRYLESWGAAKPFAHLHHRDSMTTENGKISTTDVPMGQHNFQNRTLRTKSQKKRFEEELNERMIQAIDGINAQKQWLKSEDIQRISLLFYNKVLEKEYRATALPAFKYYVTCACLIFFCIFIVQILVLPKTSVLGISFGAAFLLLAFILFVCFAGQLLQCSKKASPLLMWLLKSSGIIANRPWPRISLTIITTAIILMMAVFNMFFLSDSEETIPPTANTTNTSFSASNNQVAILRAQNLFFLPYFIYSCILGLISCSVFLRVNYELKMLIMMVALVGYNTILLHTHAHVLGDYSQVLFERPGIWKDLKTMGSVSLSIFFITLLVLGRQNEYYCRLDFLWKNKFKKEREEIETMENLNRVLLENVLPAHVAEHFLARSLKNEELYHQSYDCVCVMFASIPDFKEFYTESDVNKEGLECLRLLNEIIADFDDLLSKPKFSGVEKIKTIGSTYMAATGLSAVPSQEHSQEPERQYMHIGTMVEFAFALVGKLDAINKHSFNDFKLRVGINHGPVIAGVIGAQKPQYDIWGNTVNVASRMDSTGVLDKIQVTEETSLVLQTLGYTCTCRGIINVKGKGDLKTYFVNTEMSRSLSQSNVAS
# Sequence (P63092 2-394 Q227L partner): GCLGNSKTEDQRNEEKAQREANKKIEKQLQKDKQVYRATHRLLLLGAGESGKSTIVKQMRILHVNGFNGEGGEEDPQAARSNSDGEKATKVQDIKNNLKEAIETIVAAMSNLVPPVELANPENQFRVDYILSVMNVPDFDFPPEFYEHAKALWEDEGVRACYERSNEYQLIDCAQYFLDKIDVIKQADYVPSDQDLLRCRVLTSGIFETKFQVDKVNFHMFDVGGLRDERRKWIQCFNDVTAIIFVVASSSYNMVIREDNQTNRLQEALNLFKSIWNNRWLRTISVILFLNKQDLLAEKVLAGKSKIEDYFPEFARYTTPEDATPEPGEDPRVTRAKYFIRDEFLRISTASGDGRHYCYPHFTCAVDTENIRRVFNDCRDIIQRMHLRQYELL
# protocol notes: AC assay, Gsα-stimulated mAC2 in membranes from transfected HEK293 cells
# settings: enhancement of 300 nM Gsα-stimulated activity
Provide the reading as a plain figure in µM.

Query :: GET /values?readout=EC50&item= CCCCCCCC/C=C\CCCCCCCC(=O)O
Result :: 8.6

Query :: Field entry: CCCCCC/C=C\CCCCCCCCCC(=O)O [cis-Vaccenic acid, cis-Vaccenic ((11E)-octadecenoic) acid]
Result :: 10.6

---

# system tested: HEK293-mAC5(membr)–AC3(cat) cells (Homo sapiens, UniProt O60266+O95622)
# Construct: followed by AC5(1–402)_AC3(250–631)_AC5(761–1009)_AC3(862–1144)
# Sequence (O95622 1-402, one chain of several): as the sequence (O95622 1-402, one chain of several) above
# Sequence (O95622 761-1009, one chain of several): as the sequence (O95622 761-1009, one chain of several) above
# protocol notes: cAMP accumulation assay, isoproterenol-stimulated HEK-mAC5–3 cells
# settings: 2.5 µM isoproterenol, +0.5 mM IBMX
attribute measured: pIC50
# pIC50: negative log10 of molar concentration; output just the value

Query :: GET /values?readout=pIC50&item= CCCCC/C=C\C/C=C\C/C=C\C/C=C\CCCC(=O)NCCO [Anandamide, arachidonoylethanolamide]
Result :: 4.22

---

# system tested: HEK293 cells permanently transfected with mAC5 (Homo sapiens)
# Construct: Human mAC genes were from GenScript and fitted with a C-terminal FLAG-tag; FLAG (C)
# protocol notes: cAMP accumulation assay, isoproterenol-stimulated HEK-mAC5 cells
# settings: 2.5 µM isoproterenol
attribute measured: IC50 (µM)
Provide the reading as a plain figure in µM.

Query :: GET /values?readout=IC50&item= CCCCC/C=C\C/C=C\C/C=C\C/C=C\CCCC(=O)NCCO [Anandamide, arachidonoylethanolamide]
Result :: 133

---

# system tested: mAC3 (Homo sapiens, UniProt O60266)
# Construct: Human mAC genes were from GenScript and fitted with a C-terminal FLAG-tag; FLAG (C); made in house; host or cells: HEK293, permanently transfected; membrane preparation
# protocol notes: AC assay, Gsα-stimulated mAC3 in membranes from transfected HEK293 cells
# Assay type: biochemical
# settings: 20 µM; in words
attribute measured: Effect of lipid on 300 nM Gsα-stimulated mAC3

Known results for molecules:
CCCCCC/C=C\CCCCCCCC(=O)O ... less efficacious
CCCCCCCCCCCCCCCC(=O)O ... less efficacious
CCCCCCCC/C=C/CCCCCCCC(=O)O ... efficient enhancers
CCCCCC/C=C\CCCCCCCCCC(=O)O [cis-Vaccenic acid, cis-Vaccenic ((11E)-octadecenoic) acid] ... efficient enhancers
CCCCC/C=C\C/C=C\CCCCCCCC(=O)O [Linoleic acid, Linoleic ((9Z,12Z)-octadecadienoic) acid] ... efficient enhancers
CC/C=C\C/C=C\C/C=C\C/C=C\C/C=C\CCCC(=O)O ... less efficacious

Query :: Query the reported Effect of lipid on 300 nM Gsα-stimulated mAC3 for mAC3 (Homo sapiens, UniProt O60266); item: CCCCCCCC/C=C\CCCCCCCC(N)=O [Oleamide, Oleamide ((9Z)-octadecenamide)]
Result :: less efficacious

Query :: Field entry: CC/C=C\C/C=C\C/C=C\CCCCCCCC(=O)O
Result :: less efficacious

Data provenance is paper PMC11606603.
